target: Sphingosine-1-phosphate transporter SPNS2 (Homo sapiens) (UniProt Q8IVW8); assay: Inhibition of Spns2 in human HeLa cells assessed as decrease in extracellular S1P level at 2 uM by LC/MS analysis relative to control; format: cell-based
Sequence (Q8IVW8 whole entry): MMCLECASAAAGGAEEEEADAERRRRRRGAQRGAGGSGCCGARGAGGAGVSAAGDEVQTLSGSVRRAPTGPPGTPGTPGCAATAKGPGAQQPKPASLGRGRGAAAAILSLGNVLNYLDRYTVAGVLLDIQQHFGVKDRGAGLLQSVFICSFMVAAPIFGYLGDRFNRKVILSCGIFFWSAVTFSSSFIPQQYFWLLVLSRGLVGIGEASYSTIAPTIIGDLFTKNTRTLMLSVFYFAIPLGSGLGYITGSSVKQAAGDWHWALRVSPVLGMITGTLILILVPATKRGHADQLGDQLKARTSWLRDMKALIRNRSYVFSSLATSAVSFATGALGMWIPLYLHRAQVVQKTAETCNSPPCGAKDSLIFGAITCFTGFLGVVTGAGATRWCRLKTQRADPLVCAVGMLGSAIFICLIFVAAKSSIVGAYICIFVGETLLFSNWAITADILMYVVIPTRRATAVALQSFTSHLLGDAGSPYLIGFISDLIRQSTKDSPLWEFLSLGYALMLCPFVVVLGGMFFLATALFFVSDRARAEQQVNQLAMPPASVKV
MEASURED ATTRIBUTE: inhibition (%)

MOL | TARGET DESC | inhibition / %
CCCCCCCCCCc1ccc(-c2cn(CC)c(CCCN)n2)cc1 | Sphingosine-1-phosphate transporter SPNS2 (Homo sapiens) (UniProt Q8IVW8) | 51

[P] CCCCCCCCCCc1ccc(-c2cn(CCC)c(CCCN)n2)cc1
[Q] CCCCCCCCCCc1ccc(-c2cn(CC(N)=O)c(CCCN)n2)cc1
Name the one with the greater inhibition value, either P or Q as given. Indicate your choice by writing its label.
Q
(Q: 10%, P: 7%)
